- protocol.notes: self-splicing fitness, log relative to wild type (ln ratio); higher = more splicing; Tetrahymena group I intron in knt gene, E. coli kanamycin selection, DiMSum; sequences stand for … in CUCUCU…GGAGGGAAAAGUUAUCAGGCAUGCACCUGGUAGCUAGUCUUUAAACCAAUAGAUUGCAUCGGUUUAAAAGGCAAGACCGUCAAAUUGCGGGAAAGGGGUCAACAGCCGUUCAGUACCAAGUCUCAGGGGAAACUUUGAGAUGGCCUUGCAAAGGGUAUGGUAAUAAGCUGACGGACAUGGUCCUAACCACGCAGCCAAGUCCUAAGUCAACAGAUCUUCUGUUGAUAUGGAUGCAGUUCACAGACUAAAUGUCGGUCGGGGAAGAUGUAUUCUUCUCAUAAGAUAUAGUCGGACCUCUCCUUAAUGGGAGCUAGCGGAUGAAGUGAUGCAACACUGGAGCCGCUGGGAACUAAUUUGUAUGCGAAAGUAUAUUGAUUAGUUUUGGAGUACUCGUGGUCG;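 note: selection with 25 µg/mL kanamycin versus none on LB agar overnight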
- measurement.parameters: 37 °C
measured.metric: self-splicing fitness (ln)

sequence.input: CCACAGCAAUAUUACGAGAU
result.value: -1.65
//
sequence.input: UCUAAGCAAUAUUACGAAUU
result.value: -2.66
//
sequence.input: CUCCAGCAAUAUUACGCUUG
result.value: -2.96
//
sequence.input: AGGGAGCAAUAUUACGCUAG
result.value: -0.612
//
sequence.input: UUGUAGCAAUAUUACGACGA
result.value: -0.0034
//
sequence.input: AACCAGCAAUAUUACGAUCC
result.value: -0.358
//
sequence.input: UACAAGCAAUAUUACGGUAC
result.value: -3.1
//
sequence.input: GUGUAGCAAUAUUACGCCAU
result.value: -1.51
